The entries that follow carry IC50 values tested on F1F0-ATPase (Bos taurus, UniProt P13621), drawn from several published reports.

compound=CC(C)(C)N/C(=N/C(=O)c1ccc(F)c(F)c1)Nc1n[nH]c2cncc(Cl)c12 value_reported="< 5 µM"

Exam item: What value of IC50 on F1F0-ATPase (Bos taurus, UniProt P13621) does "CC(C)(C)CN/C(=N/C(=O)c1ccc(C(F)(F)F)cc1)Nc1cc(C(F)(F)F)n[nH]1" have?
Marked response: < 10 µM

Exam item: Queued: COCC(C)NC(=NC(=O)c1ccnc(N2CCCC2)c1)Nc1cc(-c2ccc(F)cc2)[nH]n1 (centres unmarked)
Marked response: < 10 µM

Exam item: // repeat for "CC(C)CN/C(=N/C(=O)c1ccc(C(F)(F)F)cc1)Nc1cc(-c2cc(F)cc(F)c2)n[nH]1" and report
Marked response: < 10 µM

Exam item: Then this compound: "COC[C@H](C)N/C(=N/C(=O)c1ccc(F)c(F)c1)Nc1n[nH]c2ccccc12"
Marked response: 5 to 16 µM

Exam item: Same question, "Cc1ccc(-c2cc(N/C(=N\C(=O)c3cnoc3C)NC3(C)CCCC3)[nH]n2)cc1F" this time
Marked response: < 5 µM

Exam item: Input "O=C(/N=C(/Nc1cccc(Cl)c1)N[C@H]1CC[C@H](O)CC1)c1cccc(Cl)c1"
Marked response: > 10 µM

Exam item: // repeat for CCC(C)N/C(=N/C(=O)c1ccc(Cl)c(F)c1)Nc1cc(C)n[nH]1 (centres unmarked) and report
Marked response: < 10 µM

---

pIC50: −log10 of the molar value.
Dear all, I have gathered published pIC50 values for F1F0-ATPase (Bos taurus, UniProt P13621); the list follows.

Exam item: Bench note: what pIC50 did "CCOCCNC(=NC(=O)c1ccc(F)c(F)c1)Nc1n[nH]c2cc(Cl)c(F)cc12" show?
Marked response: > 5.30

Exam item: What about "CC(C)(C)N/C(=N/C(=O)c1cccc(O)c1)Nc1n[nH]c2cc(F)ccc12" ?
Marked response: > 5.30

Exam item: Would you kindly repeat that for "CC(C)CNC(=NC(=O)c1ccc(Cl)cc1)Nc1cc(-c2cc(F)cc(F)c2)n[nH]1" ?
Marked response: > 5.00

Exam item: Same question for "O=C(N=C(Nc1cc(-c2cc(F)cc(F)c2)n[nH]1)NC1CCCC1)c1cccc(F)c1" please.
Marked response: > 5.00

Exam item: What about "Cn1cc(C(=O)/N=C(\Nc2cc(-c3cc(O)ccc3Cl)n[nH]2)NC(C)(C)C)c(C(F)(F)F)n1" ?
Marked response: > 5.30

---

Listed below are molecules with IC50 for F1F0-ATPase (Bos taurus), each taken from published literature.

Recorded IC50, per entry:
molecule=O=C(/N=C(/Nc1cccc(C(F)(F)F)c1)N[C@H]1CC[C@H](Nc2ncccn2)CC1)c1ccc(Cl)cc1 experimental_target="F1F0-ATPase (Bos taurus)" value_reported="< 10 µM"
molecule=Cc1cc(C(=O)/N=C(/NCC(C)C)Nc2cc(-c3cc(F)cc(F)c3)n[nH]2)n(C)n1 experimental_target="F1F0-ATPase (Bos taurus)" value_reported="< 5 µM"
molecule=O=C(N=C(Nc1cc(-c2ccc(F)cc2)n[nH]1)NC1CCC1)c1ccc(F)c(F)c1 experimental_target="F1F0-ATPase (Bos taurus)" value_reported="< 10 µM"
molecule=CC(C)(C)NC(=NC(=O)c1cccc(C(F)(F)F)c1)Nc1cc(-c2ccc(F)cc2)n[nH]1 experimental_target="F1F0-ATPase (Bos taurus)" value_reported="< 10 µM"
molecule=O=C(/N=C(/NCc1ccccc1Cl)N[C@H]1CC[C@H](Nc2ncccn2)CC1)c1ccc(F)c(F)c1 experimental_target="F1F0-ATPase (Bos taurus)" value_reported="< 10 µM"

Exam item: What IC50 value was documented for this molecule, "Cc1ccc(C(=O)N=C(NCc2ccc(F)cc2Cl)Nc2cc(C(F)(F)F)n[nH]2)cc1F" ?
Marked response: < 10 µM

Exam item: Next up: "CS(=O)(=O)Nc1cccc(N/C(=N\C(=O)c2ccc(C(F)(F)F)cc2)Nc2cc(F)cc(Cl)c2)n1"
Marked response: < 10 µM

Exam item: Next up: "Cc1cccc(C(=O)N=C(Nc2cc(-c3ccc(F)cc3)n[nH]2)NC(C)(C)C)c1"
Marked response: < 10 µM

---

Reported IC50 against F1F0-ATPase (Bos taurus), gathered from multiple publications, appears below.

Here is how some compounds turned out for IC50.
compound="CC1CCCCC1NC(=NC(=O)c1ccc(C(F)(F)F)cc1)Nc1cccc(O)n1 (stereo not shown)" value_reported="< 10 µM"
compound=CC1(CN/C(=N/C(=O)c2ccc(F)c(F)c2)Nc2cc(-c3ccc(F)cc3)n[nH]2)COC1 value_reported="< 10 µM"
compound=CC(C)(CO)N/C(=N/C(=O)c1ccc(F)cc1)Nc1cc(-c2ccc(F)cc2)n[nH]1 value_reported="< 10 µM"
compound=O=C(/N=C(\Nc1cc(-c2cc(F)cc(Cl)c2)n[nH]1)NC1CCCC1)c1ccc(F)c(F)c1 value_reported="< 10 µM"

Exam item: Item "O=C(/N=C(/Nc1cc(F)cc(Cl)c1)Nc1cccc(O)n1)c1ccc(C(F)(F)F)cc1" has what recorded IC50?
Marked response: < 10 µM

Exam item: Lookup "Cn1cc(C(=O)/N=C(/Nc2cccc(Cl)c2)Nc2cc(-c3ccc(O)c(F)c3)n[nH]2)c(C(F)(F)F)n1"
Marked response: < 5 µM

Exam item: Then this compound: "O=C(/N=C(/NCc1ccc(F)cc1Cl)Nc1cc(C(F)(F)F)n[nH]1)c1nccs1"
Marked response: < 5 µM

---

Here we gather pIC50 data for F1F0-ATPase (Bos taurus, UniProt P13621) reported by several publications.
pIC50: −log10 of the molar value.

Some solved entries appear below for comparison.
compound=O=C(N=C(Nc1cc(-c2cc(F)cc(F)c2)n[nH]1)NC1CCC1)c1ccc(C(F)(F)F)cc1 value_reported="> 5.00"
compound=CC(C)(C)CN/C(=N/C(=O)c1ccc(C(F)(F)F)nc1)Nc1cc(C(F)(F)F)[nH]n1 value_reported="> 5.00"
compound=O=C(/N=C(\Nc1cc(C(F)(F)F)[nH]n1)NC1(CO)CCCC1)c1ccc(F)cc1 value_reported="> 5.00"
compound=COC[C@H](C)NC(=NC(=O)c1ccc(F)cc1)Nc1cc(-c2ccc(F)cc2)n[nH]1 value_reported="> 5.00"
compound=O=C(/N=C(/Nc1ccccc1C1CC1)N[C@H]1CC[C@H](O)CC1)c1ccc(F)c(F)c1 value_reported="< 5.00"
compound=CCOCCCN/C(=N/C(=O)c1cnoc1C)Nc1cc(-c2ccc(F)cc2)n[nH]1 value_reported="< 4.80"
compound="COCC(C)NC(=NC(=O)c1cnoc1C)Nc1cc(-c2ccc(Cl)cc2)n[nH]1 (stereo not drawn)" value_reported="4.80 to 5.30"
compound=Cn1cc(C(=O)/N=C(/Nc2cc(-c3cc(F)cc(F)c3)n[nH]2)NC2CCC2)c(C(F)(F)F)n1 value_reported="> 5.30"

Exam item: Fill in: pIC50 of "COC[C@H](C)N/C(=N/C(=O)c1ccc(Cl)cc1)Nc1cc(-c2ccc(F)cc2)n[nH]1" is ___
Marked response: > 5.00

Exam item: Moving on to "CC(C)(C)CN/C(=N/C(=O)c1ccc(Cl)cc1)Nc1cccc(NS(=O)(=O)c2ccccc2)n1"
Marked response: > 5.00

Exam item: Field entry: "N[C@H]1CC[C@H](N/C(=N/C(=O)c2ccc(F)c(F)c2)Nc2cc(F)cc(Cl)c2)CC1"
Marked response: < 5.00

Exam item: Please do the same for CCOCC(C)N/C(=N/C(=O)c1ccc(F)c(F)c1)Nc1cc(-c2ccc(F)cc2)n[nH]1 (stereo not drawn) as well.
Marked response: > 5.00

Exam item: Another compound to look at: "Cn1cc(C(=O)/N=C(\Nc2cc(-c3ccc(O)c(F)c3)n[nH]2)Nc2ccccc2C(C)(C)C)c(C(F)(F)F)n1"
Marked response: > 5.30

Exam item: Request: COC(=O)NC1CCC(N/C(=N\C(=O)c2ccccc2)Nc2cc(F)cc(Cl)c2)CC1 (stereo not drawn)
Marked response: > 5.00

Exam item: What about "CN(C)C(=O)N[C@H]1CC[C@H](N/C(=N\C(=O)c2ccc(F)c(F)c2)Nc2cc(F)cc(Cl)c2)CC1" ?
Marked response: > 5.00

---

The compounds below each have a reported IC50 tested on F1F0-ATPase (Bos taurus, UniProt P13621); the values come from various publications.

Solved entries:
compound=CC(C)(C)N/C(=N/C(=O)c1ccc(N2CCOCC2)nc1)Nc1n[nH]c2cc(C(F)(F)F)ccc12 quantity_measured=IC50 value_reported="< 5 µM"
compound=Cc1ccc(-c2cc(NC(=NC(=O)c3ccc(C(F)(F)F)cc3)NC(C)(C)C)[nH]n2)cc1 quantity_measured=IC50 value_reported="< 10 µM"
compound="CCC(C)CN/C(=N/C(=O)c1ccc(F)c(F)c1)Nc1cc(-c2ccc(C)c(F)c2)n[nH]1 (centres unmarked)" quantity_measured=IC50 value_reported="< 10 µM"
compound=CC(C)(C)N/C(=N/C(=O)c1ccc(F)cc1)Nc1cc(-c2ccc(F)cc2)n[nH]1 quantity_measured=IC50 value_reported="< 10 µM"
compound=O=C(/N=C(/NCc1cc(F)ccc1F)N[C@H]1CC[C@H](O)CC1)c1ccc(F)c(F)c1 quantity_measured=IC50 value_reported="> 10 µM"
compound=Cn1nc(C(C)(C)C)cc1C(=O)/N=C(\Nc1cc(-c2ccc(Cl)cc2)n[nH]1)NC(C)(C)C quantity_measured=IC50 value_reported="< 5 µM"
compound=CC(C)(C)N/C(=N/C(=O)c1cccc(C(F)(F)F)c1)Nc1cc(-c2cccc(Cl)c2)[nH]n1 quantity_measured=IC50 value_reported="< 10 µM"
compound="CCOC(=O)NC1CCC(N/C(=N\\C(=O)c2ccc(OC)cc2)Nc2cc(F)cc(Cl)c2)CC1 (centres unmarked)" quantity_measured=IC50 value_reported="< 10 µM"
compound=O=C(/N=C(\Nc1cc(C(F)(F)F)n[nH]1)NC1CCC1)c1ccc(C(F)(F)F)cc1 quantity_measured=IC50 value_reported="< 10 µM"
compound=CC(C)(C)N/C(=N/C(=O)c1ccc(C(F)(F)F)nc1)Nc1cc(C(F)(F)F)[nH]n1 quantity_measured=IC50 value_reported="< 10 µM"

Exam item: Item "Cn1cc(C(=O)/N=C(/Nc2ccc(F)cc2)Nc2cc(-c3ccc(O)c(F)c3)n[nH]2)c(C(F)(F)F)n1" has what recorded IC50?
Marked response: < 5 µM

Exam item: Then "CC(C)N/C(=N/C(=O)c1cccc(C#N)c1)Nc1cc(-c2cc(F)cc(F)c2)n[nH]1" ?
Marked response: < 10 µM

Exam item: Same again, this time with "COc1cccc(CN/C(=N/C(=O)c2cc(F)c(F)c(F)c2)Nc2cc(-c3ccc(F)cc3)[nH]n2)c1"
Marked response: < 10 µM

Exam item: What about this compound? "CCC(C)(C)N/C(=N/C(=O)c1cccc(C(F)(F)F)c1)Nc1cc(C(F)(F)F)[nH]n1"
Marked response: < 10 µM

Exam item: Another compound: CCOC(=O)NC1CCC(N/C(=N\C(=O)c2ccc(F)c(S(C)(=O)=O)c2)NCc2ccc(F)cc2Cl)CC1 (centres unmarked)
Marked response: > 10 µM

Exam item: Quick one: "CC(C)(C)N/C(=N/C(=O)c1ccc(C(F)(F)F)cc1)Nc1cc(-c2ccccc2O)n[nH]1"
Marked response: < 10 µM

Exam item: What would you report for "COc1ccccc1C(=O)N=C(NCc1ccc(F)cc1Cl)Nc1cc(C(F)(F)F)n[nH]1" ?
Marked response: < 10 µM
